experiment: Unbound fraction in serum of patient with severe cirrhosis (5 patients) at 500 mg, iv by Sarcina lutea based bioassay; type: ADME, organism-based; conditions: human
assay-readout: fraction unbound
Could you respond with only the numeric value?

Prompt line: # input compound: `CC[C@H]1OC(=O)[C@H](C)[C@@H](O[C@H]2C[C@@](C)(OC)[C@@H](O)[C@H](C)O2)[C@H](C)[C@@H](O[C@@H]2O[C@H](C)C[C@H](N(C)C)[C@H]2O)[C@](C)(O)C[C@@H](C)C(=O)[C@H](C)[C@@H](O)[C@]1(C)O.O=C(O)[C@H](O)[C@@H](O)[C@H](O[C@@H]1O[C@H](CO)[C@@H](O)[C@@H](O)[C@H]1O)[C@H](O)CO` ; wanted: its fraction unbound
Response line: 0.583
